Biological target: rat NaPi-2b (Rattus norvegicus, UniProt Q9JJ09)
Construct: expressed in transfected cells; host or cells: Xenopus oocytes injected with cRNA
Sequence (Q9JJ09 1-695): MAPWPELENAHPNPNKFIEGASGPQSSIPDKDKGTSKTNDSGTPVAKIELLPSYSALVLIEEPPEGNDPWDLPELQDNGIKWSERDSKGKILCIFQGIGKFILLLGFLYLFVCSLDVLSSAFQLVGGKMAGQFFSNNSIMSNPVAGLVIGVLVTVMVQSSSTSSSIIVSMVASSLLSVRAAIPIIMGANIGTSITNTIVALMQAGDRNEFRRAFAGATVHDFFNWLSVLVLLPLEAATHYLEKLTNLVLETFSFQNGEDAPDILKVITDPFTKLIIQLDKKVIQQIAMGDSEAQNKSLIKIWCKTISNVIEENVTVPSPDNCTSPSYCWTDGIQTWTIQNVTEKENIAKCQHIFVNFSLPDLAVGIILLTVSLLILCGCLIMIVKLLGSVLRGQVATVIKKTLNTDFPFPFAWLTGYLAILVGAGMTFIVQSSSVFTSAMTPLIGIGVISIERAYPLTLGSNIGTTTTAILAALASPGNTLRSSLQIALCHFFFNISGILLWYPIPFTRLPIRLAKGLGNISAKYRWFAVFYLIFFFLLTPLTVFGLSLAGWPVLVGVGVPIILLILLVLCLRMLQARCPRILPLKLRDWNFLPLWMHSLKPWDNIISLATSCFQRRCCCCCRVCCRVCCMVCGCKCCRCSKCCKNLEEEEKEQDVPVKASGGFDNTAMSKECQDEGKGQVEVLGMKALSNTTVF
Test: Sodium-dependent phosphate uptake of Xenopus oocytes which expressed NaPi-2b (32P)
Assay type: cell-based
Conditions: Xenopus oocytes expressing rat NaPi-2b, 32P radioactive phosphorus; read-out: IC50 (phosphate uptake inhibitory activity)
pIC50: −log10 of the molar value.
Measured pIC50 of individual entries
ENDPOINT: pIC50

1. COc1ccc(/C=N/NC(=O)c2c(NC(=O)c3cccc(CN4CCC(CO)CC4)c3)sc3ccccc23)cc1 [Compound 803] :: 5.31
2. Cc1ccc(/C=N/NC(=O)c2c(NC(=O)c3cccc(CN4CCC(CO)CC4)c3)sc3c2CCCC3)cc1 [Compound 640] :: 5.79
3. CCN(CC)CCN(C)Cc1cccc(C(=O)Nc2ccc(OC)cc2C(=O)N/N=C/c2cccc(F)c2)c1 [Compound 1022] :: 5.49
4. Cc1csc(NC(=O)c2cccc(CN3CCC(N4CCCCC4)CC3)c2)c1C(=O)N/N=C/c1ccc(F)cc1 [Compound 571] :: 5.28
5. O=C(Nc1ccccc1C(=O)N/N=C/c1ccc(F)cc1)c1cccc(OC(F)(F)F)c1 [Compound 121] :: 5.39

----------
Target: rat NaPi-2b (Rattus norvegicus)
Assay: Sodium-dependent phosphate uptake of Xenopus oocytes which expressed NaPi-2b (32P)
Conditions: Xenopus oocytes expressing rat NaPi-2b, 32P radioactive phosphorus; read-out: IC50 (phosphate uptake inhibitory activity)
Threshold check on IC50: strictly below 8 µM is criterion met; on or above 8 µM is criterion not met.

1. Cc1sc(NC(=O)c2cccc(CN(CC(C)O)CC(C)O)c2)c(C(=O)N/N=C/c2ccc(F)cc2)c1C (stereo not shown) :: criterion met
2. CC(O)CN(Cc1cccc(C(=O)Nc2sc3c(c2C(=O)N/N=C/c2ccc(F)cc2)CCC3)c1)CC(C)O (stereo not shown) :: criterion met
3. O=C(Nc1ccc(I)cc1C(=O)N/N=C/c1cccc(F)c1)c1cccc(CN2CCC(N3CCCCC3)CC2)c1 :: criterion met
4. O=C(Nc1sc2c(c1C(=O)N/N=C/c1cccc(F)c1)CCCC2)c1cccc(CN2CCN(CCO)CC2)c1 :: criterion met
5. CCN(CC)CCN(C)Cc1cccc(C(=O)Nc2ccc(I)cc2C(=O)N/N=C/c2cccc(OC)c2)c1 :: criterion met
6. Cc1ccc(/C=N/NC(=O)c2ccccc2NC(=O)c2cccnc2)cc1 [Compound 132] :: criterion met
7. Cc1csc(NC(=O)c2cccc(CN(CC(C)O)CC(C)O)c2)c1C(=O)N/N=C/c1cccc(F)c1 (stereo not shown) :: criterion met
8. Cc1csc(NC(=O)c2cccc(CSCCCO)c2)c1C(=O)N/N=C/c1ccc(F)cc1 :: criterion met
9. O=C(Nc1ccc(Br)cc1C(=O)N/N=C/c1ccc(F)cc1)c1ccc(F)cc1 :: criterion met
10. O=c1c2cc(Br)ccc2nc(-c2cccc(CSCCO)c2)n1/N=C/c1ccc(Cl)c(C(F)(F)F)c1 :: criterion met
11. CCN(CC)CCN(C)Cc1cccc(C(=O)Nc2scc(C)c2C(=O)N/N=C/c2ccc(C)cc2)c1 :: criterion not met
12. COc1ccc(/C=N/NC(=O)c2ccsc2NC(=O)c2cccc(CSCCCO)c2)cc1 :: criterion not met
